- System Name: T1, human TFPIα (human, UniProt P10646 29-304)
- T1 construct: recombinant full-length TFPIα in the assays; also called TFPI alpha; full-length TFPIα
- Experiment Summary: SPR Biacore T200; mAb captured on anti-mouse Ig; TFPI as analyte; 1:1 model
Property: Kd (nM)
Field: numeric (nM). Do not append units.

Consider the worked cases shown below.
mAb 1F56 (antibody, V domains shown, murine antibody from hybridoma) VH: DVQLQESGPGLVKPSQSLSLTCTVSGYSITSDYAWNWIRQFPGNKLEWMGYISYSGSTSYNPSLKSRISITRDTSKNQFFLQLNSVTTEDTATYYCARWAYDGPWGQGTLVTVSA VL: QIVLSQSPALLSASPGEKVTMTCRASSSVSHMHWYQQKPGSSPKPWIYATSNLASGVPARFSGSGSGTSYSLTITRVEAEDAATYYCQQWSSNPFTFGSGTKLEIKR	9.81
mAb 2F3 (antibody, IgG1, V domains shown, Murine mIgG1, kappa light chain) VH: QVQLKQSGPGLVQPSQSLSITCTVSGFSLSSYGVHWVRQSPGKGLEWLGVIWRGGSTDFNAAFMSRVSFTKDNSKSQVFFKMNSLQADDTAIYYCAKNSHGNYVGYAMDYWGQGTSVTVSS VL: DIVMTQSQKFMSTTVGDKVSIPCKASENVGAAVAWYQQKPGQSPTLLIYSASNRYTGIPDRFTGSGSGTDFTLTIRTVQSEDLADYFCQQYTNYPTFGGGTKLEIKR	0.448
mAb 2F22 (antibody, IgG1, V domains shown, Murine mIgG1, kappa light chain) VH: QVQLKQSGPGLVQPSQSLSITCTVSGFSLTNYGVHWVRQSPGKGLEWLAVIWRGGSIDYNAAFMSRLSITKDNSKSQVFFKMNSLQADDTAIYYCAKNSHGNYVGYAMDYWGQGTSVTVSS VL: GIVMTQSQKFMSTTVGDRVSITCKASQSVGPAVAWYQQKPGQSPKLLIYSASNRYTGVPDRFTGSGSGADFTLTISNLHSEDLADYFCQQYTSYPTFGGGTKLEIKR	0.688

Switching to the query record.
Consider the binder mAb 1F91 (antibody, IgG1, V domains shown, Murine mIgG1, kappa light chain) VH: DVQLQESGPGLVKPSQSLSLTCTVSGYSITSDYAWNWIRQFPGNKLEWMGYISYSGSTSYNPSLKSRISITRDTSKNQFFLQLNSVTTEDTATYYCARWAYDGPWGQGTLVTVSA VL: QIVLSQSPALLSASPGEKVTMTCRASSSVSHMHWYQQKPGSSPKPWIYATSNLASGVPARFSGSGSGTSYSLTITRVEAEDAATYYCQQWSSNPFTFGSGTKLEIKR . State its measured Kd.
10
